assay: Evaluation of conversion rate to active form in buffer solution (Experimental Example 1); type: physicochemical; conditions: pH5.0, 0.5 hr, 37° C., 25 umol/L in buffer solution
Below: a set of entries, each annotated with reported Residual rate.
Write the answer as a number in %, unit excluded.

# example entries with known answers
MOLECULE	PARAMETER_MEASURED	VALUE_REPORTED
CCN(C[C@@H]1CCCCN1)C(=O)Oc1cc(O)c2c(=O)cc(-c3ccccc3Cl)oc2c1[C@H]1CCN(C)C[C@H]1O [Example 1, ditrifluoroacetate]	Residual rate	98.4
CCCN(C[C@@H]1CCCCN1)C(=O)Oc1cc(O)c2c(=O)cc(-c3ccccc3Cl)oc2c1[C@H]1CCN(C)C[C@H]1O	Residual rate	98.3
CN1CC[C@H](c2c(OC(=O)N(CCCC(F)(F)F)CC3CCCCN3)cc(O)c3c(=O)cc(-c4ccccc4Cl)oc23)[C@H](O)C1 (stereo partly shown)	Residual rate	54.6

Next up:
IN: Please supply the value of reported Residual rate for the item CN1CC[C@H](c2c(OC(=O)N(Cc3ccccc3)CC3CCCCN3)cc(O)c3c(=O)cc(-c4ccccc4Cl)oc23)[C@H](O)C1 (stereo partly shown)
OUT: 95.2

----------
assay: Evaluation of conversion rate to active form in BALB/c mouse plasma (Experimental Example 3); format: in vitro ADME; conditions: BALB/c, mouse, 60 min, 0.2 μmol/L
Below: a set of entries, each annotated with reported Residual rate (%) of test compound.
Write the answer as a number in %, unit excluded.

# example entries with known answers
MOLECULE	Residual rate (%) of test compound
C[C@H](N)C(=O)O[C@@H]1CN(C)CC[C@@H]1c1c(O)cc(O)c2c(=O)cc(-c3ccccc3Cl)oc12 [Comparative Example 7, reference compound]	25
CCNC(=O)O[C@@H]1CN(C)CC[C@@H]1c1c(O)cc(O)c2c(=O)cc(-c3ccccc3Cl)oc12 [Comparative Example 4, reference compound]	94
CC(C)[C@H](N)C(=O)O[C@@H]1CN(C)CC[C@@H]1c1c(O)cc(O)c2c(=O)cc(-c3ccccc3Cl)oc12 [Comparative Example 10, reference compound]	84
CN1CC[C@H](c2c(O)cc(O)c3c(=O)cc(-c4ccccc4Cl)oc23)[C@H](OC(=O)c2ccccc2F)C1	85

Next up:
IN: Please supply the value of reported Residual rate (%) of test compound for the item CCOC(=O)O[C@@H]1CN(C)CC[C@@H]1c1c(O)cc(O)c2c(=O)cc(-c3ccccc3Cl)oc12 [Comparative Example 3, reference compound]
OUT: 90

----------
test: Evaluation of conversion rate to active form in buffer solution (Experimental Example 1); assay type: physicochemical; conditions: pH7.0, 0.5 hr
PARAMETER_MEASURED: Production rate of Alvocidib (%)
Write the answer as a number in %, unit excluded.

MOLECULE	Production rate of Alvocidib / %
CNCCN(C)C(=O)Oc1cc(O)c2c(=O)cc(-c3ccccc3Cl)oc2c1[C@H]1CCN(C)C[C@H]1O [Comparative Example 14, reference compound]	96.8
CN1CC[C@H](c2c(O)cc(O)c3c(=O)cc(-c4ccccc4Cl)oc23)[C@H](OC(=O)[C@@H](N)CO)C1 [Comparative Example 9, reference compound]	21.7
CNC(=O)O[C@@H]1CN(C)CC[C@@H]1c1c(O)cc(O)c2c(=O)cc(-c3ccccc3Cl)oc12 [Comparative Example 5, reference compound]	0.0
CNC(=O)Oc1cc(O)c2c(=O)cc(-c3ccccc3Cl)oc2c1[C@H]1CCN(C)C[C@H]1O [Comparative Example 2, reference compound]	98.6
C[C@H](N)C(=O)O[C@@H]1CN(C)CC[C@@H]1c1c(O)cc(O)c2c(=O)cc(-c3ccccc3Cl)oc12 [Comparative Example 7, reference compound]	37.3

Next up:
IN: Please supply the value of reported Production rate of Alvocidib for the item CC(C)[C@H](N)C(=O)O[C@@H]1CN(C)CC[C@@H]1c1c(O)cc(O)c2c(=O)cc(-c3ccccc3Cl)oc12 [Comparative Example 10, reference compound]
OUT: 5.2
